- run.description: chemical genetic growth profiling, strain panel (AID 1159580);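 note: tested at 20 µM; growth read once vehicle control cultures reached saturation at 30 °C; 1 = growth at the plate median or of vehicle wells; lower values mean less growth of the strain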
- assay.conditions: S. cerevisiae deletion strains, growth OD, locus YOR270C, strain vph1, stronger effect = lower value
Screen size: about 5,500 compounds; about 2,000 (36%) were called active. Not shown: some 18% with an inconclusive outcome. Some of the results follow.
property.measured: normalized growth
Please give the numeric answer without any surrounding text.

Lookup: Supply normalized growth value. Item: CC(=O)N[C@@H](Cc1c[nH]c2ccccc12)C(N)=O
Found: 1

Lookup: Supply normalized growth value. Item: C[C@H](CCC(=O)O)[C@H]1CCC2C3C(=O)CC4CC(=O)CC[C@]4(C)C3CC(=O)[C@@]21C (stereo partly specified)
Found: 0.988

Lookup: Supply normalized growth value. Item: CCOC(=O)[C@H](CCc1ccccc1)N[C@@H](C)C(=O)N1CCC[C@H]1C(=O)O
Found: 0.999

Lookup: Supply normalized growth value. Item: O=C(O)C1=CCCNC1
Found: 0.976

Lookup: Supply normalized growth value. Item: CCCN(CCC)S(=O)(=O)c1ccc(C(=O)O)cc1
Found: 1

Lookup: Supply normalized growth value. Item: O=C(O)c1ccccc1
Found: 0.98

---

Please go through the items and note down their normalized growth.
- run.description: chemical genetic growth profiling, strain panel (AID 1159580);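 note: tested at 20 µM; growth read once vehicle control cultures reached saturation at 30 °C; 1 = growth at the plate median or of vehicle wells; lower values mean less growth of the strain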
- assay.conditions: S. cerevisiae deletion strains, growth OD, locus YML120C, strain ndi1, stronger effect = lower value
Screen size: about 5,500 compounds; about 2,000 (36%) were called active. Not shown: some 18% with an inconclusive outcome. The list shows a part of the results.
Please give the numeric answer without any surrounding text.

Lookup: Supply normalized growth value. Item: CN(C)C(=O)Oc1cccc([N+](C)(C)C)c1
Found: 0.999

Lookup: Supply normalized growth value. Item: CC(C)CCCC(C)C1CCC2C3=CC[C@H]4C[C@@H](O)CC[C@]4(C)C3CC[C@@]21C (stereo not given in full)
Found: 0.965

Lookup: Supply normalized growth value. Item: CC(C)CCCC(C)[C@H]1CCC2C3CC=C4CC(=O)CC[C@]4(C)C3CC[C@@]21C (stereo not given in full)
Found: 0.949

Lookup: Supply normalized growth value. Item: CCC(C)C(=O)OC1[C@@H]2CC3=C4CC(=O)O[C@@H](c5ccoc5)[C@]4(C)CCC3[C@@](C)(C2=O)[C@@H](CC(=O)OC)C1(C)C (stereo not given in full)
Found: 1

Lookup: Supply normalized growth value. Item: CCCSc1ccc2nc(NC(=O)OC)[nH]c2c1
Found: 1

Lookup: Supply normalized growth value. Item: CC(C)NCC(O)COc1ccc(COCCOC(C)C)cc1 (stereo not given)
Found: 0.984

Lookup: Supply normalized growth value. Item: C/C=C\C1=C(C(=O)O)N2C(=O)C(NC(=O)C(N)c3ccc(O)cc3)C2SC1 (stereo not given)
Found: 1.02

Lookup: Supply normalized growth value. Item: NCC(N)C(=O)c1ccccc1 (stereo not given)
Found: 1

Lookup: Supply normalized growth value. Item: CC(C)c1ccc2c(c1)CCC1C(C)(C(N)=O)CCCC21C (stereo not given)
Found: 0.939

Lookup: Supply normalized growth value. Item: CC(=O)N[C@@H](Cc1c[nH]c2ccccc12)C(N)=O
Found: 1.03

---

- run.description: chemical genetic growth profiling, strain panel (AID 1159580);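 note: tested at 20 µM; growth read once vehicle control cultures reached saturation at 30 °C; 1 = growth at the plate median or of vehicle wells; lower values mean less growth of the strain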
- assay.conditions: S. cerevisiae deletion strains, growth OD, locus YLR320W, strain mms22, stronger effect = lower value
The whole screen tested about 5,500 compounds, of which about 2,000 (36%) were called active. Roughly 18% stayed inconclusive and do not appear here. The list shows a part of the results.
property.measured: normalized growth
Please give the numeric answer without any surrounding text.

Lookup: Supply normalized growth value. Item: CC1=CCCC2C1(C)CCC(C)C2(C)CC/C(C)=C/C[n+]1cn(C)c2c(N)ncnc21 (stereo unspecified)
Found: 1

Lookup: Supply normalized growth value. Item: CCN1CCN(C(=O)NC(C(=O)N[C@@H]2C(=O)N3[C@@H]2SC(C)(C)[C@@H]3C(=O)O)c2ccccc2)C(=O)C1=O (stereo partly specified)
Found: 0.978

Lookup: Supply normalized growth value. Item: CC(=O)Nc1ccc(S(=O)(=O)Nc2onc(C)c2C)cc1
Found: 0.972

Lookup: Supply normalized growth value. Item: CN[C@@H]1[C@H](O)[C@H](NC)[C@H]2O[C@@]3(O)C(=O)C[C@@H](C)O[C@H]3O[C@@H]2[C@H]1O
Found: 0.974

Lookup: Supply normalized growth value. Item: CN(C)CCCN1c2ccccc2CCc2ccc(Cl)cc21
Found: 1

Lookup: Supply normalized growth value. Item: Cc1scc2c1N(C(=O)CN1CCN(C)CC1)c1ccccc1NC2=O
Found: 1

Lookup: Supply normalized growth value. Item: CC12CCC3C(CC3(C)C)C(C)(CCC1=O)O2 (stereo unspecified)
Found: 0.992

Lookup: Supply normalized growth value. Item: Nc1ccc(C(=O)O)cc1
Found: 1.01

Lookup: Supply normalized growth value. Item: C=C1c2cccc(O)c2C(O)=C2C(=O)[C@]3(O)C(O)=C(C(N)=O)C(=O)[C@@H](N(C)C)[C@@H]3[C@@H](O)[C@H]12
Found: 1.01

Lookup: Supply normalized growth value. Item: CC(=O)O[C@H]1CC[C@@]2(C)C(=CC(=O)C3C4CCC(C(C)CCCC(C)C)[C@@]4(C)CCC32)C1 (stereo partly specified)
Found: 0.991

Lookup: Supply normalized growth value. Item: COc1cc(C/C=C/c2ccccc2)c(OC)cc1O
Found: 0.982

Lookup: Supply normalized growth value. Item: CC(=O)O[C@@H]1CC2C(C)(C)C(=O)C=C[C@]2(C)C2CC[C@]3(C)C(=CC(=O)O[C@H]3c3ccoc3)[C@@]21C (stereo partly specified)
Found: 1.01

Lookup: Supply normalized growth value. Item: C/C=C\C1=C(C(=O)O)N2C(=O)C(NC(=O)C(N)c3ccc(O)cc3)C2SC1 (stereo unspecified)
Found: 1.02

Lookup: Supply normalized growth value. Item: CC1(C)CC2C1CC[C@]1(C)CCC3C(C(=O)O)CC(=O)O[C@@]32C1 (stereo partly specified)
Found: 1.05

Lookup: Supply normalized growth value. Item: CN(C)CCCN1c2ccccc2Sc2ccccc21
Found: 0.996

Lookup: Supply normalized growth value. Item: O=C(O)c1cc(O)c2c(c1)[C@@H]([C@H]1c3cc(C(=O)O)cc(O)c3C(=O)c3c(O[C@H]4O[C@H](CO)[C@@H](O)[C@H](O)[C@H]4O)cccc31)c1cccc(O[C@H]3O[C@H](CO)[C@@H](O)[C@H](O)[C@H]3O)c1C2=O
Found: 1.03

Lookup: Supply normalized growth value. Item: CC(C)CCCC(C)C1CCC2C3CC(=O)[C@H]4C[C@@H](O)CC[C@]4(C)C3CC[C@]12C (stereo partly specified)
Found: 1.02

Lookup: Supply normalized growth value. Item: CC(C)=CCCC(C)[C@@H]1CC[C@]2(C)C3=C(CC[C@@]12C)C1(C)CC[C@H](O)C(C)(C)C1CC3 (stereo partly specified)
Found: 1.05

Lookup: Supply normalized growth value. Item: CCC(C)[C@H]1O[C@]2(C=C[C@@H]1C)C[C@@H]1C[C@@H](C/C=C(\C)[C@@H](OC3C[C@H](OC)C(O[C@H]4C[C@H](OC)[C@@H](O)[C@H](C)O4)[C@H](C)O3)[C@@H](C)/C=C/C=C3\CO[C@@H]4[C@H](O)C(C)=C[C@@H](C(=O)O1)[C@]34O)O2 (stereo partly specified)
Found: 0.828

Lookup: Supply normalized growth value. Item: Cc1cn[nH]c1
Found: 1.08

Lookup: Supply normalized growth value. Item: CC(C)C[C@@H](CN)CC(=O)O
Found: 0.981

Lookup: Supply normalized growth value. Item: CN(C)CCCN1c2ccccc2Sc2ccc(C(F)(F)F)cc21
Found: 1.06

Lookup: Supply normalized growth value. Item: CC(C)CCCC(C)[C@H]1CCC2C3CC=C4CC(=O)CC[C@]4(C)C3CC[C@@]21C (stereo partly specified)
Found: 0.999

Lookup: Supply normalized growth value. Item: CC(=O)O[C@H]1CC[C@@]2(C)C(C[C@@H](OC(C)=O)[C@@]3(C)C4=CC(=O)O[C@@H](c5ccoc5)[C@]4(C)CCC23)C1(C)C (stereo partly specified)
Found: 0.999

Lookup: Supply normalized growth value. Item: CNCCCC12CCC(c3ccccc31)c1ccccc12
Found: 0.992

Lookup: Supply normalized growth value. Item: CC(C)CCCC(C)C1CCC2C3C[C@@H](O)[C@@]4(O)C[C@@H](O)CC[C@]4(C)C3CC[C@]12C (stereo partly specified)
Found: 0.941

Lookup: Supply normalized growth value. Item: CC(C)=CCc1c2c(c3occ(-c4ccc(O)c(O)c4)c(=O)c3c1O)C=CC(C)(C)O2
Found: 0.931

Lookup: Supply normalized growth value. Item: CC(Cc1cccc(C(F)(F)F)c1)NCCOC(=O)c1ccccc1 (stereo unspecified)
Found: 0.913

Lookup: Supply normalized growth value. Item: CCOC(=O)[C@H](CCc1ccccc1)N[C@@H](C)C(=O)N1CCC[C@H]1C(=O)O
Found: 0.984

Lookup: Supply normalized growth value. Item: CCCc1cc(=O)[nH]c(=S)[nH]1
Found: 1.03

Lookup: Supply normalized growth value. Item: CS(=O)(=O)Nc1ccc([N+](=O)[O-])cc1Oc1ccccc1
Found: 0.994
